target: hCA II (Homo sapiens, UniProt P00918); construct: gene CA2; recombinant human CA II, obtained in-house; assay: stopped-flow CO2 hydration assay; assay type: biochemical
Attribute Measured: log10 Ki (log10 of the value in µM)
Reminder: these figures are log10 of reported Ki, in µM before transformation.

Cc1ccccc1CN1CCN(C(=O)CN2CCN(C(C#N)C(C)C)CC2)CC1 (centres unmarked) [compound 35, Z1171402445] :: 1.78
CC(C)C(C#N)N1CCN(C(=O)C2CCCO2)CC1 (centres unmarked) [compound 39, Z1167645477] :: 1.31
CCNC(=O)CCCC(=O)N1CCN(C(C#N)c2ccccc2)CC1 (centres unmarked) [compound 18, Z1185260979] :: -0.03

Fill in log10 Ki for each of the 2 compounds listed.
1. CC(C)C(C#N)N1CCN(C(=O)CSc2ccc(Br)cc2)CC1 (centres unmarked) [compound 36, Z1167646026]
2. CC(C)C(C#N)N1CCN(c2ncnc3ccsc23)CC1 (centres unmarked) [compound 16, Z1251205249]

[1.47, -0.01]

Could you report log10 Ki for every entry in the following list?
1. COc1ccc(C(=O)N2CCN(C(C#N)C(C)C)CC2)cc1OC(F)F (centres unmarked) [compound 46, Z1126852482]
2. CCc1noc(CC)c1CC(=O)N1CCN(C(C#N)C(C)C)CC1 (centres unmarked) [compound 31, Z1390085782]

0.57
-0.12

Given CNS(=O)(=O)CCCN1CCN(C(C#N)c2ccccc2)CC1 (centres unmarked) [compound 32, Z1395303258] , state its recorded log10 Ki.
-0.07

----------
Task for the reader: assign each of the following compounds its reported ΔTm at 20 µM.
target: bCA (Bos taurus, UniProt P00921); construct: gene CA2; commercial bovine carbonic anhydrase; assay: biochemical; parameters: Differential scanning fluorimetry (SYPRO Orange) melting temperature shift of bCA, 20 uM compound
Sequence (P00921 2-260): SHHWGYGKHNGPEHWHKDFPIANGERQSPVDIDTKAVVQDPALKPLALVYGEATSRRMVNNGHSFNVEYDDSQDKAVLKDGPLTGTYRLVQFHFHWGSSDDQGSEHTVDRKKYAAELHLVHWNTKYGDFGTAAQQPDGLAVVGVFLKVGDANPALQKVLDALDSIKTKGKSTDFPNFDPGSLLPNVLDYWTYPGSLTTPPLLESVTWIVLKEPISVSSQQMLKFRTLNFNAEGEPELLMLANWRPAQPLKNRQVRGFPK
One number for each entry, in °C.

CC(C)C(C#N)N1CCN(CC(=O)NCc2ccccn2)CC1 (stereo not shown) :: 1.14
Cn1cc(CN2CCN(C(C#N)c3ccccc3)CC2)c(-c2cccnc2)n1 (stereo not shown) :: 1.37
CC(C)C(C#N)N1CCN(c2ncnc3ccsc23)CC1 (stereo not shown) :: 1.5

// switching to the query compound
// lookup ΔTm at 20 µM for COc1ccc(C(C#N)N2CCN(C(=O)C3CCCCC3)CC2)cc1 (stereo not shown)
1.64

----------
biological target: hCA II (Homo sapiens, UniProt P00918); construct: gene CA2; recombinant human CA II, obtained in-house; assay: stopped-flow CO2 hydration assay; assay type: biochemical; conditions: CO2 […]; […] Hepes pH […]; […] Na2SO4; room temperature; […] min pre-incubation
Assign a class from recorded Ki; defined classes: Low = under 5 µM, Mid = from 5 µM up to 40 µM, High = 40 µM and over

Examples from the recorded data:
N#CC(c1c(F)cccc1Cl)N1CCC(N2CCCC2=O)CC1 (stereo not drawn) [compound 25, Z1298979831] :: Mid
N#CC(c1ccccc1)N1CCN(CC(=O)NCC2CCC2)CC1 (stereo not drawn) [compound 33, Z1395304494] :: Mid
N#CC1COCCN1 (stereo not drawn) [compound 43, Z1198234963] :: High
COc1ccc(C(C#N)N2CCN(C(=O)c3ccc(S(=O)(=O)N4CCCCCC4)cc3)CC2)cc1 (stereo not drawn) [compound 9, Z118259626] :: High
N#CC(c1ccccc1)N1CCN(CC(=O)NCC(F)(F)F)CC1 (stereo not drawn) [compound 49, Z1317905463] :: Low
N#CC(c1ccccc1)N1CCN(C(=O)C2CCN(S(=O)(=O)c3ccccc3F)CC2)CC1 (stereo not drawn) [compound 8, Z118260178] :: High
N#CC(c1ccccc1)N1CCN(CC(=O)NC2CCOCC2)CC1 (stereo not drawn) [compound 28, Z1317906129] :: Mid
Cc1cnc(C(=O)N2CCN(Cc3ccccc3)C(C#N)C2)cn1 (stereo not drawn) [compound 20, Z1204317166] :: High
CC1(C)CN(C(C#N)c2ccc(Cl)cc2)CCO1 (stereo not drawn) [compound 13, Z1097120891] :: Mid
N#CC(c1c(F)cccc1Cl)N1CCCC(N2CCNC2=O)C1 (stereo not drawn) [compound 24, Z1298330150] :: Mid

Record CNC(=O)C1CCN(C(C#N)c2c(F)cccc2Cl)CC1 (stereo not drawn) [compound 26, Z1297989190] — which class?
Low

For the record N#CC1CN(C(=O)CCc2ccsc2)CCN1Cc1ccccc1 (stereo not drawn) [compound 19, Z1204316164] , report the class its Ki corresponds to.
Mid

Could you place CCC(CC)c1cc(C(=O)N2CCN(C(C#N)C(C)C)CC2)on1 (stereo not drawn) [compound 22, Z1261078980] in its proper category? Many thanks.
High

----------
For each of the compounds below, state its pKi.
biological target: hCA II (Homo sapiens); construct: gene CA2; recombinant human CA II, obtained in-house; test: stopped-flow CO2 hydration assay; assay type: biochemical; conditions: CO2 […]; […] Hepes pH […]; […] Na2SO4; room temperature; […] min pre-incubation
pKi: −log10 of the molar value.

CC(C#N)N1CCN(C(=O)OC(C)(C)C)CC1 (stereo not shown) [compound 40, Z1124717499] :: 4.38
CC(C)C(C#N)N1CCN(c2ncnc3cc(F)ccc23)CC1 (stereo not shown) [compound 15, Z1251205230] :: < 4.00
COc1ccc(C(C#N)N2CCN(C(=O)c3ccc4[nH]c5c(c4c3)CC(C)CC5)CC2)cc1 (stereo not shown) [compound 7, Z118259780] :: < 4.00

So what's the measured pKi for this one? CC(C)C(C#N)N1CCN(C(=O)C/C=C/c2cccc(F)c2)CC1 (stereo not shown) [compound 27, Z1343956502]
< 4.00
